Assay: optical density change of DRC41 E. coli – strain DRC41, OD650, 24 h, E. coli filamentation project, primary screen (AID 1093);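 also: MC1000 strain lacking acrAB efflux and sulA so SOS filamentation is blocked; test concentration not given here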
Settings: E. coli DRC41 growth, higher = more signal, called active from +8 up or from −8 down
readout: z-score
Write the number on its own, no unit after it.

{"compound": "COc1ccc([Si](C)(C)[C@@H]2[C@@H](CC(=O)N3CCC[C@H]3CO)O[C@]3(C(=O)N(Cc4cccc(N5C(=O)COc6ccccc65)c4)c4ccccc43)[C@H]2C)cc1", "z-score": 0.222}
{"compound": "CCCC=C(CCC)[C@@H](NS(=O)(=O)c1ccc(C(F)(F)F)cc1)c1ccccc1", "z-score": -1.74}
{"compound": "C=CC[C@H](OC(=O)Nc1ccc(SC)cc1)c1ccc(O)c2ccccc12", "z-score": 1.42}
{"compound": "CN(C)c1ccc(C(O)C2C=CC3C(=O)NC(=O)C3N2Nc2ccccn2)cc1 (stereo unspecified)", "z-score": -1.26}

Fill blank: measured z-score of the compound CC(C)NC(=O)[C@@]1(C)c2ccccc2C(=O)N(Cc2ccc(OC(F)(F)F)cc2)[C@H]1c1ccc(CO)cc1 is ____.
-1.55

Fill blank: measured z-score of the compound COC(=O)c1c(CC[C@@H](CO)NC(=O)N2CCC[C@H]2Cn2cc(C3(O)CCCCC3)nn2)oc(C(C)=O)c1C(=O)OC is ____.
-0.889

* * *

compounds and their reported z-score
Assay: compound effects on lung adenocarcinoma cell viability – A549, calcein-AM fluorescence, 48 h, basal, profiling panel (AID 1162); also: test concentration not given here
Details: higher = more signal

Example entries begin here.
{"compound": "COc1ccc([Si](C)(C)[C@H]2[C@H](CC(=O)N(CCO)Cc3ccccc3)O[C@@]3(C(=O)N(C)c4c(Br)cc(C)cc43)[C@@H]2C)cc1", "readout": "z-score", "result_value": -3.51}
{"compound": "COC(=O)[C@@]1(Cc2ccc(F)cc2)[C@H]2c3cc(C(=O)N(C)C)n(CCc4ccc(OC)c(Br)c4)c3C[C@H]2CN1C(=O)c1ccccc1", "readout": "z-score", "result_value": -2.25}

Now for another entry.
Fill blank: measured z-score of the compound CS(=O)(=O)CCOC(=O)C1=CC(CCCO)=CC(c2ccc(CN3CCCC3)cc2)N(Cc2sc3ccccc3c2Cl)C=C1C(=O)OCCS(C)(=O)=O (stereo not drawn) is ____.
0.389

* * *

Target: Follistatin-related protein 3 (Homo sapiens)
Assay: compounds binding follistatin-related protein 3 – biochemical, small-molecule microarray, 635 nm fluorescence, primary screen (AID 1105);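 also: score merges emission near 667 nm and signal to noise per printed spot across three slides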
Details: FSTL3 binding, higher = more signal
compounds and their reported composite z-score
Write the number on its own, no unit after it.

{"compound": "CCCNC(=O)[C@@]1(Sc2ccc(C)cc2)CC(=O)N(C2Cc3ccccc3C2)[C@@H]1c1ccc(CO)cc1I", "readout": "composite z-score", "result_value": -0.268}
{"compound": "NCCCCCNC(=O)[C@@H]1C[C@@H]2C(=O)N[C@@H](CCCCN)C(=O)N2[C@@H]1c1ccc(O)cc1", "readout": "composite z-score", "result_value": 1.43}
{"compound": "Oc1ccc2cc[n+](Cc3cc4c(cc3Br)OCO4)cc2c1", "readout": "composite z-score", "result_value": -0.456}
{"compound": "COc1ccc(C#Cc2ccc3c(c2)[C@]2(C(=O)N3)[C@H](c3ccc(O)cc3)N3[C@H](c4ccccc4)[C@H](c4ccccc4)OC(=O)[C@H]3[C@@H]2C(=O)Nc2nc3ccccc3s2)cc1", "readout": "composite z-score", "result_value": 1.2}
{"compound": "O=C1O[C@@H](c2ccccc2)[C@@H](c2ccccc2)N2[C@@H](c3ccc(O)cc3)[C@]3(C(=O)Nc4ccc(C#CCCO)cc43)[C@@H](C(=O)N3CCN(c4ncccn4)CC3)[C@H]12", "readout": "composite z-score", "result_value": 0.89}

Provide the documented composite z-score with Follistatin-related protein 3 (Homo sapiens) as the system for COCC(=C=CC[C@H](O)c1ccccc1OCCO)C[C@H](O)c1ccccn1
-0.114

Provide the documented composite z-score with Follistatin-related protein 3 (Homo sapiens) as the system for CC(=O)N1CC2(CC2)CC1c1ccccc1 (stereo not given)
-0.154

Provide the documented composite z-score with Follistatin-related protein 3 (Homo sapiens) as the system for CCCCC(=C=CC[C@H](O)c1ccc(OCCO)cc1)CCO
-0.24

Provide the documented composite z-score with Follistatin-related protein 3 (Homo sapiens) as the system for COCCOC(=O)N1C(=O)[C@@]2(c3ccccc31)[C@H](c1ccc(O)cc1)N1[C@H](c3ccccc3)[C@H](c3ccccc3)OC(=O)[C@H]1[C@@H]2C(=O)N1CCN(c2ncccn2)CC1
0.466

Provide the documented composite z-score with Follistatin-related protein 3 (Homo sapiens) as the system for [N-]=[N+]=Nc1ccccc1C[C@@]1(C(=O)NCCN2CCOCC2)N=C(c2ccc(OCCCO)cc2)O[C@@H]1c1ccccc1N=[N+]=[N-]
0.453
